system: Staphylococcus aureus; details: Concentration 32 ug.mL-1;; ASSAY_TEST Inhibition of Bacterial Growth; detection method Absorption (OD600); MEDIA CAMHB; plate type 384well; NBS; CORNING #3640; time 18 hr
Description: Antibacterial activity against Staphylococcus aureus MRSA ATCC 43300 (CO-ADD:GP_020); MIC in CAMBH media, using NBS plates, by OD(600)
Results with a measured potency or affinity are listed apart.
OUTCOME MEASURE: Inhibition (%)
Give bare numbers, in %.

SMI	UNIT ABBREVIATION	Inhibition
O=C(CSc1nnc2c(=O)n(-c3ccc(F)cc3)ccn12)c1ccccc1Cl	%	19.94
Cc1nnc2c(S(=O)(=O)N(Cc3ccc(F)cc3)c3ccc(Cl)cc3)cccn12	%	5.21
Cc1ccc(-c2cc3c4nn(CC(=O)Nc5ccc(Cl)cc5)c(=O)n4ccn3n2)cc1C	%	-15.51
Cc1nnc2ccc(S(=O)(=O)N(Cc3cccc(F)c3)c3ccc4c(c3)OCO4)cn12	%	-10.23

State the recorded Inhibition for every item in the following list.
1. Cc1ccc(-c2cc3c4nn(CC(=O)Nc5c(C)cccc5C)c(=O)n4ccn3n2)cc1
2. Cc1cc(Br)ccc1NC(=O)Cn1nc2c(Sc3ccccc3)nccn2c1=O

1: 9.95; 2: 4.58
